# System: mESC Bmi1-luciferase reporter, firefly/renilla ratio, 24 h
# Test Name: compounds raising Bmi1 reporter signal – mouse embryonic stem cells, luciferase, cherry-pick, esBAF inhibitor project, dose response (AID 651717);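 note: luciferase knocked into Bmi1 locus with EF-1a renilla as cell number control; rising ratio signals esBAF inhibition which derepresses Bmi1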
Listed next: entries and their corresponding AC40.
Value Type: AC40

>>> result("O=C(Nc1ccc(Cl)c(Cl)c1)c1ccncc1")
"6.32 µM"
>>> result("COc1cc(Cl)ccc1OCc1cc(C(=O)N(C)Cc2cccc3cnccc23)no1")
"7.79 µM"
>>> result("Cc1ccc(NC(=O)C2CCCN(c3ncccn3)C2)cc1F (configuration not stated)")
"1.16 µM"
>>> result("COc1ccccc1Cc1c(-c2ccc(C)cc2)nc2ccc(Cl)cn12")
"1.18 µM"
>>> result("O=C(c1ccccc1)c1ccc2ccccc2c1")
"3.04 µM"
>>> result("CSc1nnc(NC(=O)C23CC4CC(CC(C4)C2)C3)s1")
"6.47 µM"
>>> result("Cc1cccc(COc2ccc(/C=N/NC(=O)c3nnn(-c4nonc4N)c3CN3CCCCC3)cc2)c1")
"34.2 µM"
>>> result("Cc1ccc(C(=O)CC(=O)c2ccccc2C)c(O)c1")
"9.56 µM"
>>> result("COc1cccc(OCc2cc(C(=O)N3CCN(C(C)=O)CC3)no2)c1")
"3.15 µM"
>>> result("CC(=Nc1ccccc1O)c1sc2ccccc2c1O")
"3.82 µM"
>>> result("O=C(NC1CCCC1)c1cc(-c2ccccc2O)on1")
"1.65 µM"
>>> result("O=C(Nc1ccc(Oc2cccnc2)cc1)c1ccccc1F")
"12.7 µM"

----------
Listed next: entries and their corresponding AC40.
# Test system: mESC Bmi1-luciferase reporter, firefly/renilla ratio, 24 h
# Test Name: compounds raising Bmi1 reporter signal – mouse embryonic stem cells, luciferase, cherry-pick, esBAF inhibitor project, dose response (AID 651717);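 note: luciferase knocked into Bmi1 locus with EF-1a renilla as cell number control; rising ratio signals esBAF inhibition which derepresses Bmi1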
Value Type: AC40

>>> result("COc1cc(OC)c2c(-c3cccc(/C=C/c4ccc(F)cc4)c3)cc(=O)oc2c1")
"3.49 µM"
>>> result("COc1ccc(C)cc1NCc1cc(=O)oc2cc(-c3ccccc3)c(O)cc12")
"32.4 µM"
>>> result("CCCN1CCN(CCCNC(=O)c2ccc3nc(N4CCCCC4)sc3c2)CC1")
"13.3 µM"
>>> result("C=CCSC1=NNC(c2ccc(C(C)(C)C)cc2)=NN1")
"8.49 µM"
>>> result("O=C(O)c1ccc(O)c2ncccc12")
"1.67 µM"
>>> result("Cc1noc(C)c1-c1csc(N2CCC(C(N)=O)CC2)n1")
"0.444 µM"
>>> result("CCOC(=O)C1=C(CSc2nc(-c3ccccc3)ccc2C#N)OC(N)=C(C#N)C1c1ccc(OC)cc1 (stereo not drawn)")
"6.12 µM"
>>> result("Cc1cccc(NC(=O)c2cc(-c3cc(Cl)ccc3O)n[nH]2)c1")
"2.08 µM"
>>> result("Oc1ccc(/C=N/Nc2nc(-c3cccnc3)nc3ccccc23)c(O)c1")
"11.2 µM"
>>> result("COc1cccc(NC(=O)N2CCc3nc(Nc4ccc(C(C)C)cc4)ncc3C2)c1")
"29.9 µM"
>>> result("c1ccc(-c2ccc3[nH]ccc3c2)cc1")
"3.07 µM"
>>> result("CCCn1cnc2cc(NCc3ccccc3O)ccc21")
"17.2 µM"
>>> result("O=C(c1ccncc1)N1N=C(c2ccc(Cl)cc2)CC1c1ccccc1O (stereo not drawn)")
"2.04 µM"
>>> result("COc1ccc(-c2csc(C(O)c3ccc(F)cc3)n2)cc1 (stereo not drawn)")
"1.54 µM"
>>> result("Cc1ccnc(NC(=O)c2ccc(Cl)c(S(=O)(=O)N3CCCCC3)c2)c1")
"11.7 µM"
>>> result("CC(=O)NCCNc1nc2cc(-c3ccc(C)cc3)sc2c(=O)n1C")
"14.3 µM"
>>> result("CO[C@@H]1CN(C)C(=O)c2cc(NC(=O)Nc3ccc4c(c3)OCO4)ccc2OC[C@@H](C)NC[C@@H]1C")
"3.02 µM"
>>> result("CCC(C)c1ccc(NC(=O)C2CC2)cc1 (stereo not drawn)")
"5.85 µM"
>>> result("NC(N)=NC(=O)c1nc(Cl)c(N2CCCCCC2)nc1N")
"3.13 µM"
>>> result("O=C(Nc1ccccn1)c1ccc(Cl)c(S(=O)(=O)N2CCCCCC2)c1")
"10.4 µM"
>>> result("COc1ccc(OCc2cc(C(=O)NC(C)Cc3cnccn3)no2)c(Cl)c1 (stereo not drawn)")
"5.42 µM"
>>> result("c1ccc(Nc2nc(-c3ccncc3)cs2)cc1")
"2.71 µM"
>>> result("O=C(Nc1ccccn1)c1ccc(Cl)c(S(=O)(=O)N2CCCC2)c1")
"14.6 µM"

Origin of measurements: PubChem BioAssay AID651717
